test protocol: human hepatoma cell viability loss – ATP luminescence, cytotoxicity control for P. falciparum antimalarial project, primary screen (AID 2303);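 also: 0% = DMSO wells and 100% = digitonin-killed cells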
details: HepG2 viability, 24-48 h, at 10 µM
The source made the active and inactive calls.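 The calls were made as follows: active = inhibition above 50%; inactive = the rest.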
Outcomes: label 1 = active, label 0 = inactive

> print(dat)
                                    compound  class.label
 1  O=C(/C=C/c1ccc(Cl)c(Cl)c1)NCCCCCN1CCC(NC(=O)Nc2cc(F)cc(F)c2)CC1      label 1
 2  CC(C)CCNC(=O)[C@@H]1[C@H]2C(=O)N(C3CCCCC3)C(=O)[C@H]2[C@H]2C=C[C@@H]3C(c4ccc(C(C)(C)C)cc4)=NO[C@@H]3N21      label 0
 3  COc1cc(C2Nc3ccc4ccccc4c3C3=C2C(=O)CC(C)(C)C3)ccc1Oc1ccc([N+](=O)[O-])cc1C#N (stereo not drawn)      label 0
 4  Cc1noc(C)c1-c1ccc(C(=C2CCCCCCC2)c2ccc(O)cc2)cc1      label 0
 5  O=C(Nc1cccc(-c2ccc(-c3nc4ccc(C(F)(F)F)cc4[nH]3)cc2)c1)c1ccoc1      label 1
 6  CN1CCN(CCCN(Cc2csc(-c3ccc(CNCc4ccccc4)cc3)n2)S(=O)(=O)c2ccc(F)cc2)CC1      label 0
 7  O=C(/C=C/c1ccc(F)cc1)NC1CCC(CCN2CCc3ccc(-n4cccn4)cc3CC2)CC1 (stereo not drawn)      label 0
 8  CC(C)[C@H](NC(=O)c1ccc(O)c(-c2ccc(Cl)c(Cl)c2)c1)C(=O)NCCN1CCOCC1      label 0
 9  Cc1ccc2c(c1C)NC(=O)C21NN=C(c2ccccc2)S1 (stereo not drawn)      label 0
10  Cc1cc(N)c2cc(NC(=O)c3cccc(C(=O)Nc4ccc5nc(C)cc(N)c5c4)c3)ccc2n1      label 0
11  Fc1cccc(COc2ccc(-n3ccc4c(NCCCn5ccnc5)ncnc43)cc2Cl)n1      label 0
12  CCC(C)NS(=O)(=O)c1ccc2nc(Nc3ccc(C)c(Cl)c3)n([C@H](C)C(C)(C)C)c2c1 (stereo partly drawn)      label 0
13  Cc1cc(Cl)c(S(=O)(=O)N2CCc3ccccc32)cc1OCC(=O)NC1CCCCC1      label 0
14  O=C(NC1CCCCN(Cc2ccccc2O)C1)c1cccc(C(F)(F)F)c1 (stereo not drawn)      label 0
15  CCCC(C)Nc1nc(C)cc(NCCC(=O)Nc2ccc(OC)cc2)n1 (stereo not drawn)      label 0
16  COc1ccc(Nc2nc(NCc3cccnc3)cc(-c3ccc(OC)cc3)n2)cc1      label 0
17    COc1ccc(C=CC(=O)Nc2ccc(N3CCCC3)cc2)cc1      label 0
18  O=C(NCCc1ccc(Cl)c(Cl)c1)C1CCCN(C(=O)c2ccc(O)c(-c3ccc(Cl)c(Cl)c3)c2)C1 (stereo not drawn)      label 0

Origin of the recorded values: PubChem BioAssay
